tested on: Plasma; assay: Anticoagulant activity in human plasma assessed as activated partial […] time at 30 ug/ml; format: functional
Observed property: APTT (s)
Respond with the bare value in s.

Given the compound "CC1=C(C(=O)NNC(N)=S)C(c2ccc(Cl)cc2)C(C(=O)NNC(N)=S)=C(C)N1" , what is its reported APTT?
90.7

# get_value(readout='APTT', item= "COc1ccc(C2C(C(=O)NNC(N)=S)=C(C)NC(C)=C2C(=O)NNC(N)=S)cc1" )
64.7

I would be grateful if you could share the reported APTT for "CC1=C(C(=O)NNC(N)=S)C(c2ccc(N(C)C)cc2)C(C(=O)NNC(N)=S)=C(C)N1" .
221.8

Return reported APTT; argument: "CC1=C(C(=O)NNC(N)=S)C(c2ccc([N+](=O)[O-])cc2)C(C(=O)NNC(N)=S)=C(C)N1"
321.2

Reported APTT, compound "CC1=C(C(=O)NNC(N)=S)C(c2ccco2)C(C(=O)NNC(N)=S)=C(C)N1" : ____
720.35

Give its APTT value. Item: "CC1=C(C(=O)NNC(N)=S)C(c2ccc(O)cc2)C(C(=O)NNC(N)=S)=C(C)N1"
400.8

Recorded APTT for "CC1=C(C(=O)NNC(N)=S)C(c2ccccc2)C(C(=O)NNC(N)=S)=C(C)N1" , please?
87.5

Reference for the values: ChEMBL document CHEMBL1667797
